Assay: Chemical stability under heating
Conditions: thermal stability, 1 week, 70° C.
Measured attribute: remaining at 168 h (%)
Dear colleague, please return just the value in %, with no unit written.

CON=C1CN(c2nc3c(cc2F)c(=O)c(C(=O)O)cn3C2CC2)CC1CN (stereo not shown) [1.5 hydrate] has a reported remaining at 168 h of 97.2

====

Attribute: MIC
Tested on: Klebsiella aerogenes 1082E
Test: In vitro antibacterial activity (MIC, agar dilution), Biological Example 1
Assay type: cell-based
Details: 18 h, Table 25, read-out: Minimum Inhibitory Concentration
Dear colleague, please return just the value in µg/mL, with no unit written.

// solved cases for MIC follow
INSERT INTO measurements (compound, measured_attribute, measured_result) VALUES
  ('NCC1CN(c2c(F)cc3c(=O)c(C(=O)O)cn(C4CC4)c3c2Cl)CC1=NOCc1ccccc1 (stereo not shown)', 'MIC', 0.031),
  ('C#CCCON=C1CN(c2nc3c(cc2F)c(=O)c(C(=O)O)cn3C2CC2)CC1CN (stereo not shown)', 'MIC', 0.031),
  ('CC1COc2c(N3CCN(C)CC3)c(F)cc3c(=O)c(C(=O)O)cn1c23 (stereo not shown) [OFLX, ofloxacin, reference compound]', 'MIC', 0.063);

NCC1CN(c2cc3c(cc2F)c(=O)c(C(=O)O)cn3C2CC2)CC1=NOCc1ccccc1 (stereo not shown) has a reported MIC of 0.13

src = patent US5776944A
